# ASSAY SYSTEM: CXCR2 (Homo sapiens)
# Construct: Promega pNLF1-C (Nluc) #CXCR20TN00; host or cells: HEK293T, transient transfection (PEI)
# Sequence (P25025 1-360): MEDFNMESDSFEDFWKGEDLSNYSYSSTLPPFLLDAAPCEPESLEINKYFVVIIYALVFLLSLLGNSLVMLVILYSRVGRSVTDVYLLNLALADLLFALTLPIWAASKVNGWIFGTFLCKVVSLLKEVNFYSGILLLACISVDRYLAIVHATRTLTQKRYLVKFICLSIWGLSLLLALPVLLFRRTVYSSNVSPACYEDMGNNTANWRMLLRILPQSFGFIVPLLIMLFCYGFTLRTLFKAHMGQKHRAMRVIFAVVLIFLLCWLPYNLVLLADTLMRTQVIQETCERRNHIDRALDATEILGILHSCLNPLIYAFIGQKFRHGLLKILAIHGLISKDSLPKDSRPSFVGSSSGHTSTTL
# TEST NAME: Membrane-based NanoBRET saturation assay (CXCR2_Nluc membranes)
# Format: binding
# APPLIED CONDITIONS: Kd of fluorescent ligands, cell-free; read-out: cell-free Kd or Ki for CXCR2
VALUE TYPE: Kd (nM)
A number alone suffices; assume nM.

Kd recorded for this molecule, Cc1ccc([C@H](Nc2c(Nc3cccc(C(=O)NCc4cn(CCCNC(=O)c5ccc(-c6c7ccc(=[N+](C)C)cc-7oc7cc(N(C)C)ccc67)c(C(=O)[O-])c5)nn4)c3O)c(=O)c2=O)C(C)(C)C)o1 , is 2

----------
# ASSAY SYSTEM: CXCR2 (Homo sapiens, UniProt P25025)
# Construct: Promega pNLF1-C (Nluc) #CXCR20TN00; host or cells: HEK293T, transient transfection (PEI)
# TEST NAME: Membrane-based NanoBRET competition assay with 9a
# Format: binding
# APPLIED CONDITIONS: competition with 9a (50 nM), CXCR2_Nluc membranes; read-out: Ki
VALUE TYPE: Ki

Ki recorded for this compound, Cc1ccc([C@H](Nc2c(Nc3cccc(C(=O)N(C)C)c3O)c(=O)c2=O)C(C)(C)C)o1 , is 0.09 nM

Ki recorded for this compound, CC(C)(C)c1ccc(S(=O)(=O)Nc2ccc(Cl)cc2-c2cncnc2N)cc1 , is ≥ 261 nM

Ki recorded for this compound, CC(=O)C1=C(O)C(=O)N(c2ccc(Br)cc2F)C1C1CCCCC1 (centres unmarked) , is ≥ 261 nM

Ki recorded for this compound, O=C(O)c1ccccc1Oc1ccc(Cl)cc1NS(=O)(=O)c1ccc(Cl)c(Cl)c1 , is ≥ 261 nM

Ki recorded for this compound, CC(C)(C)c1ccc(S(=O)(=O)Nc2ccc(Cl)cc2C(=O)c2cc[n+]([O-])cc2)cc1 , is ≥ 261 nM

----------
# ASSAY SYSTEM: CXCR2 (Homo sapiens)
# Construct: Promega pNLF1-C (Nluc) #CXCR20TN00; host or cells: HEK293T, transient transfection (PEI)
# Sequence (P25025 1-360): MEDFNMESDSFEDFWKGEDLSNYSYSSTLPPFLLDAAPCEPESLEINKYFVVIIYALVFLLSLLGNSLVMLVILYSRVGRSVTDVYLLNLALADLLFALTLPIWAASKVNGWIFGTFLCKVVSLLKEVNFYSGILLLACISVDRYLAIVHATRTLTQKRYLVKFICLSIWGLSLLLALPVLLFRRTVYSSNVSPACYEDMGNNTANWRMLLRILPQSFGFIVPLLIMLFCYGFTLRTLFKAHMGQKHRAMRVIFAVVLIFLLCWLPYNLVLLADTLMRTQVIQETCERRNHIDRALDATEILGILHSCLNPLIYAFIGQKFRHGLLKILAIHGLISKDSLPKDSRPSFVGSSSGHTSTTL
# TEST NAME: Membrane-based NanoBRET competition assay with 9a
# Type: binding
# APPLIED CONDITIONS: competition with 9a (50 nM), CXCR2_Nluc membranes; read-out: pKi (converted)
VALUE TYPE: Ki

Ki recorded for this compound, O=C(O)c1ccccc1Oc1ccc(Cl)cc1NS(=O)(=O)c1ccc(Cl)c(Cl)c1 [compound 21] , is 4680 nM

Ki recorded for this compound, CC(=O)C1=C(O)C(=O)N(c2ccc(Br)cc2F)C1C1CCCCC1 (centres unmarked) [compound 20] , is 2630 nM

Ki recorded for this compound, Cc1ccc([C@H](Nc2c(Nc3cccc(C(=O)N(C)C)c3O)c(=O)c2=O)C(C)(C)C)o1 [compound 3] , is 0.0794 nM

Ki recorded for this compound, COCCn1cc(CNC(=O)c2cccc(Nc3c(N[C@@H](c4ccc(C)o4)C(C)(C)C)c(=O)c3=O)c2O)nn1 [compound 8] , is 0.427 nM

Ki recorded for this compound, Cc1ccc([C@H](NC2=NS(=O)(=O)N=C2Nc2ccc(C)c(C(=O)N(C)C)c2O)C(C)(C)C)o1 [compound 22] , is 251 nM
